Attribute: log2 ratio of Biotin-Ahx-Ub-VS probe labelling
- system_name: USP15 (UniProt Q9Y4E8)
- Sequence (Q9Y4E8 whole entry, the tested form may be a part): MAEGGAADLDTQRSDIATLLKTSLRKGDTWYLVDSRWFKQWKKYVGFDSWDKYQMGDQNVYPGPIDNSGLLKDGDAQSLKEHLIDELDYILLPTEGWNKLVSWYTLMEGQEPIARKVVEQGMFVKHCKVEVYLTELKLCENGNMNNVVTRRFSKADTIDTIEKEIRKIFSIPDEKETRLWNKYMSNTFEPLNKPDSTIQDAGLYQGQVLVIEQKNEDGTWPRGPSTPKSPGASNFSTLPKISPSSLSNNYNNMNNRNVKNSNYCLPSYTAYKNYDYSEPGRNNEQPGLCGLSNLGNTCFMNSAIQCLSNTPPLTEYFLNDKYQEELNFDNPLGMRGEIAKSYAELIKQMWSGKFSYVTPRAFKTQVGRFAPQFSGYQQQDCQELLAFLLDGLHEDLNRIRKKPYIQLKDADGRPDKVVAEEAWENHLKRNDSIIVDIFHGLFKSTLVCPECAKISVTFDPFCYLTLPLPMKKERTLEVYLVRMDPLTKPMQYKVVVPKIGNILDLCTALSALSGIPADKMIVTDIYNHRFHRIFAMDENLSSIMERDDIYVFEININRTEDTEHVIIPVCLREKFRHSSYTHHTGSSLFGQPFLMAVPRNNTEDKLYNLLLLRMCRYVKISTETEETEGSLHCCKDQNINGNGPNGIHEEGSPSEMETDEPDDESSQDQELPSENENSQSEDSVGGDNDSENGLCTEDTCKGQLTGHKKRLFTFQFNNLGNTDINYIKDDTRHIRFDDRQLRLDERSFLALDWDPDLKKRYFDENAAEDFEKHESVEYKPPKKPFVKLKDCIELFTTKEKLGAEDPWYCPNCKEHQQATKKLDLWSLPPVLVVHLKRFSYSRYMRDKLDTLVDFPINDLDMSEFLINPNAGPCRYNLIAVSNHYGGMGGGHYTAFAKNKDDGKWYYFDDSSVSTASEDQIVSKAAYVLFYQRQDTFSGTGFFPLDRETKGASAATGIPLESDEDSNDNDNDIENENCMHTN
- method_description: log2 ratio of Biotin-Ahx-Ub-VS probe labelling (fragment/DMSO); higher = less target engagement (more negative = stronger competition), active = hit call of the paper (q ≤ 0.05, log2 ratio ≤ -1)
- condition_description: compound concentration: 200 uM; treatment time: 3 h
measure: log2 ratio of Biotin-Ahx-Ub-VS probe labelling

compound | val
Cc1c(NC(=O)CCl)c(=O)n(-c2ccccc2)n1C | -0.102
O=C(CCl)Nc1cccc2ncccc12 | -0.178
CCC1c2ccsc2CCN1C(=O)CCl (configuration not stated) | -0.298
O=C(CN1CCN(C(=O)CCl)CC1)Nc1cccc(F)c1 | -0.225
N#Cc1cnn(-c2ccccc2)c1NC(=O)CCl | -0.516
O=C(CCl)N1CCC(O)(Cc2ccc(F)cc2)C1 (configuration not stated) | -0.149
C[C@@H](NC(=O)CCl)c1cccc(C#N)c1 | -0.222

###

- system_name: OTUB1 (UniProt Q96FW1)
- Sequence (Q96FW1 whole entry, the tested form may be a part): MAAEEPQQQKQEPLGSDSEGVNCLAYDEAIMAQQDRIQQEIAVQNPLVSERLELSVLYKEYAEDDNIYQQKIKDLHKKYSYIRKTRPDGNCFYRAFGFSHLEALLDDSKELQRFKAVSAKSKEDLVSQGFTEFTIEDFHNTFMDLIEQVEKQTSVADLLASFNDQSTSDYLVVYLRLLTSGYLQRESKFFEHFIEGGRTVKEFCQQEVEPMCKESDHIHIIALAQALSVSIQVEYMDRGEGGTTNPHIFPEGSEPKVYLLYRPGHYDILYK
- method_description: log2 ratio of Biotin-Ahx-Ub-VS probe labelling (fragment/DMSO); higher = less target engagement (more negative = stronger competition), active = hit call of the paper (q ≤ 0.05, log2 ratio ≤ -1)
- condition_description: compound concentration: 200 uM; treatment time: 3 h
measure: log2 ratio of Biotin-Ahx-Ub-VS probe labelling

compound | val
CS(=O)(=O)c1ccc(CNC(=O)CCl)cc1 | -0.0582
Cc1cc(C2CCCN2C(=O)CCl)nn1C.Cl (centres undefined) | -0.0124
O=C(CCl)NCCc1cccc2ccccc12 | 0.162
Cc1ncsc1CCNC(=O)CCl | 0.885
O=C(CCl)NC1CCN(C(=O)C2CCCCC2)CC1 | -0.0801
O=C(CCl)Nc1ccc2c(c1)OC(F)(F)O2 | 0.13
COCC[C@@H](NC(=O)CCl)c1ccccc1 | -0.131
COc1cc(Cl)c(C)cc1NC(=O)CCl | -0.0736
CCC(NC(=O)CCl)c1ccc(Cl)cc1 (centres undefined) | -0.267
CC1Cc2ccccc2N1C(=O)CCl (centres undefined) | -0.626
O=C(CCl)N(Cc1ccsc1)C1CC1 | -0.191
CC(NC(=O)CCl)c1cccc(Cl)c1 (centres undefined) | 0.0729
Cc1cccnc1NC(=O)C1CCN(C(=O)CCl)CC1.Cl | -0.251
Cc1cccc(C)c1NC(=O)CCl | -0.261

###

- system_name: UniProt P51784
- Sequence (P51784 whole entry, the tested form may be a part): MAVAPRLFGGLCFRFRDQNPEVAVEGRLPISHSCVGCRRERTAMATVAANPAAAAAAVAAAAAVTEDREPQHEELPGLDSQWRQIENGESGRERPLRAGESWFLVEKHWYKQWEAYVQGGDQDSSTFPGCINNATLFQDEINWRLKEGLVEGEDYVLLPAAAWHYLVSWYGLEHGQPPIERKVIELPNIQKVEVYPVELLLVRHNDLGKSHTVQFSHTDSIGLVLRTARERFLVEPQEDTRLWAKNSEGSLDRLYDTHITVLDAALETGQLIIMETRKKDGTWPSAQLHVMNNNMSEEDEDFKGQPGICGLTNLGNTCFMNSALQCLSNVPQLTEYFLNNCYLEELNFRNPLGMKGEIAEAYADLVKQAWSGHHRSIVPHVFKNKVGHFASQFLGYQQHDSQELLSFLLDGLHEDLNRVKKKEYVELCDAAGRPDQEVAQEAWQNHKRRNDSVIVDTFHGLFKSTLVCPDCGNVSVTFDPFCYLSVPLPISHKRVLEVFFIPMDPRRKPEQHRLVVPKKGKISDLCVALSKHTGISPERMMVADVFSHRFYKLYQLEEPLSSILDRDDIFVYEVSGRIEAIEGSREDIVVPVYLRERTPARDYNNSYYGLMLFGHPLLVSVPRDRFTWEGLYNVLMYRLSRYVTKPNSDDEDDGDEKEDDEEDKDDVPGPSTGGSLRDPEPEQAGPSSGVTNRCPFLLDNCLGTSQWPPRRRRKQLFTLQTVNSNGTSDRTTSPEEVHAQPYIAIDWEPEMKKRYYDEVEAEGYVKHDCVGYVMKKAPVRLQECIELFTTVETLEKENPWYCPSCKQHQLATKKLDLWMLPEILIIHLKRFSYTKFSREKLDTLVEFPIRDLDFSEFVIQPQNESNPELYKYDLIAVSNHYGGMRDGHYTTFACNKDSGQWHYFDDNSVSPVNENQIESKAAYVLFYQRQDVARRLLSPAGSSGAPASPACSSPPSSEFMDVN
- method_description: log2 ratio of Biotin-Ahx-Ub-VS probe labelling (fragment/DMSO); higher = less target engagement (more negative = stronger competition), active = hit call of the paper (q ≤ 0.05, log2 ratio ≤ -1)
- condition_description: compound concentration: 200 uM; treatment time: 3 h
Cut-off -0.1 on log2 ratio of Biotin-Ahx-Ub-VS probe labelling, inclusive. At or above means Condition met; below means Condition not met.

molecule | assigned_class
O=C(CN1CCN(C(=O)CCl)CC1)Nc1cccc(F)c1 | Condition met
Cc1cc(Cl)ccc1NC(=O)CCl | Condition not met
CC(NC(=O)CCl)c1csc(-c2ccccc2)n1.Cl (configuration not stated) | Condition not met
COc1ccc(C2CCCN2C(=O)CCl)c(OC)c1 (configuration not stated) | Condition not met
Cl.Cn1ncc2c1CCCC2NC(=O)CCl (configuration not stated) | Condition not met
CN(C)S(=O)(=O)c1ccccc1CNC(=O)CCl | Condition met
O=C(CCl)N(C1CCCC1)C1CCS(=O)(=O)C1 (configuration not stated) | Condition not met
